Values compiled from ChEMBL document CHEMBL3885861.

# Species: Rattus norvegicus
# protocol.description: Open TG-GATES - Regimen: Daily Repeat
# Type: toxicity, organism-based, Sprague-Dawley
# Design: regimen Daily Repeat, gender Male, age 6 weeks
# assay.setup: in vivo, po, 0 mg/kg, […], tissue Blood, route gavage, dose level Control, time 28 day
Give measured MCHC for each item. Keep answers brief.
Numbers only, in %.

molecule	MCHC [%]
NS(=O)(=O)c1cc(C(=O)O)c(NCc2ccco2)cc1Cl [FUROSEMIDE]	33.7
CCN(CC)C(=S)SSC(=S)N(CC)CC	34
CCCCC1C(=O)N(c2ccccc2)N(c2ccccc2)C1=O	33.4

Consider the following items and state reported MCHC for each.
1. O=C(O)c1ccccc1Nc1ccccc1
2. Nc1ccc(Cc2ccc(N)cc2)cc1
3. CCO
4. COc1ccc([C@@H]2Sc3ccccc3N(CCN(C)C)C(=O)[C@@H]2OC(C)=O)cc1
5. O=c1ccc2ccccc2o1
6. CC(S)C(=O)NCC(=O)O (stereo not drawn)
7. CC(=O)[C@@]1(O)CC[C@H]2[C@@H]3C=C(Cl)C4=CC(=O)CC[C@]4(C)[C@H]3CC[C@@]21C
8. CCCCNC(=O)NS(=O)(=O)c1ccc(C)cc1 [TOLBUTAMIDE]

1: 34.6; 2: 35.3; 3: 33.9; 4: 34.1; 5: 33.4; 6: 35.3; 7: 34.4; 8: 33.4

Could you report MCHC for every entry in the following list?
1. CN(CCOc1ccc(CC2SC(=O)NC2=O)cc1)c1ccccn1.O=C(O)/C=C\C(=O)O (stereo not drawn) [ROSIGLITAZONE MALEATE]
2. CN(C/C=C/C#CC(C)(C)C)Cc1cccc2ccccc12

33.2
35.4

---

# Organism: Rattus norvegicus
# protocol.description: Open TG-GATES - Regimen: Daily Repeat
# Type: toxicity, organism-based, Sprague-Dawley
# Design: regimen Daily Repeat, gender Male, age 6 weeks
# assay.setup: in vivo, po, 0 mg/kg, […], tissue Plasma, route gavage, dose level Control, time 14 day
Answer each item with its documented Na.
Numbers only, in meq/L.

Sample records with Na:
compound	Na [meq/L]
COc1ccc([C@@H]2Sc3ccccc3N(CCN(C)C)C(=O)[C@@H]2OC(C)=O)cc1	144
CCN(CC)C(=S)SSC(=S)N(CC)CC	141.2
Nc1ccc(Cc2ccc(N)cc2)cc1	143.2
CC(=O)[C@@]1(O)CC[C@H]2[C@@H]3C=C(Cl)C4=CC(=O)CC[C@]4(C)[C@H]3CC[C@@]21C	142.2
NS(=O)(=O)c1cc(C(=O)O)c(NCc2ccco2)cc1Cl [FUROSEMIDE]	143.6
O=c1ccc2ccccc2o1	139.4
CCO	142.6
CN(C/C=C/C#CC(C)(C)C)Cc1cccc2ccccc12	142.8

Quick request: Na for each listed item, please.
1. CN(CCOc1ccc(CC2SC(=O)NC2=O)cc1)c1ccccn1.O=C(O)/C=C\C(=O)O (configuration not stated) [ROSIGLITAZONE MALEATE]
2. CC(S)C(=O)NCC(=O)O (configuration not stated)

143
139.2

# batch size: 2; output Na per entry
1. O=C(O)c1ccccc1Nc1ccccc1
2. CCCCNC(=O)NS(=O)(=O)c1ccc(C)cc1 [TOLBUTAMIDE]

144
142.6

---

# Organism: Rattus norvegicus
# protocol.description: Open TG-GATES - Regimen: Daily Repeat
# Format: toxicity, organism-based, Sprague-Dawley
# Parameters: regimen Daily Repeat, gender Male, age 6 weeks
# assay.setup: in vivo, po, 0 mg/kg, 72 h, tissue Blood, route gavage, dose level Control, time 3 day
observed.property: Mono
Respond with the figure and its unit, in that order.

Previously resolved entries follow.
CCCCC1C(=O)N(c2ccccc2)N(c2ccccc2)C1=O 5.6%
CC(=O)[C@@]1(O)CC[C@H]2[C@@H]3C=C(Cl)C4=CC(=O)CC[C@]4(C)[C@H]3CC[C@@]21C 2.6%
O=c1ccc2ccccc2o1 9.8%
COc1ccc([C@@H]2Sc3ccccc3N(CCN(C)C)C(=O)[C@@H]2OC(C)=O)cc1 3.4%
CCN(CC)C(=S)SSC(=S)N(CC)CC 2.4%

Give Mono for each listed item.
1. CN(C/C=C/C#CC(C)(C)C)Cc1cccc2ccccc12
2. O=C(O)c1ccccc1Nc1ccccc1

["3%", "2.6%"]

---

# Species on record: Rattus norvegicus
# protocol.description: Open TG-GATES - Regimen: Daily Repeat
# Type: toxicity, organism-based, Sprague-Dawley
# Design: regimen Daily Repeat, gender Male, age 6 weeks
# assay.setup: in vivo, po, 300 mg/kg, […], tissue Plasma, route gavage, dose level Middle, time 7 day
Answer each item with its documented AST.
Answers are plain numbers, in IU/L.

Illustrative cases are given below, each with its answer.
compound	AST / IU/L
CC(S)C(=O)NCC(=O)O (centres undefined) [TIOPRONIN]	63.4
O=C(O)c1ccccc1Nc1ccccc1 [FENAMIC ACID]	63.4
CCCCNC(=O)NS(=O)(=O)c1ccc(C)cc1 [TOLBUTAMIDE]	65.2

Now look at this entry.
Kindly indicate its recorded AST. Item: CC(=O)[C@@]1(O)CC[C@H]2[C@@H]3C=C(Cl)C4=CC(=O)CC[C@]4(C)[C@H]3CC[C@@]21C [CHLORMADINONE] 70.8

---

# Species: Rattus norvegicus
# protocol.description: Open TG-GATES - Regimen: Single
# Format: toxicity, organism-based, Sprague-Dawley
# Design: regimen Single, gender Male, age 6 weeks
# assay.setup: in vivo, po, 0 mg/kg, 6 h, tissue Plasma, route gavage, dose level Control
I'd be grateful if you could share measured CRE for these entries.
Give bare numbers, in mg/dL.

compound	observed.property	numeric.result
CN(CCOc1ccc(CC2SC(=O)NC2=O)cc1)c1ccccn1.O=C(O)/C=C\C(=O)O (stereo not drawn) [ROSIGLITAZONE MALEATE]	CRE	0.3
COc1cc2ncnc(Nc3ccc(F)c(Cl)c3)c2cc1OCCCN1CCOCC1 [GEFITINIB]	CRE	0.1

Then there is this compound:
Specify CRE for CC(=O)[C@@]1(O)CC[C@H]2[C@@H]3C=C(Cl)C4=CC(=O)CC[C@]4(C)[C@H]3CC[C@@]21C [CHLORMADINONE] and stop. 0.1

---

# Species: Rattus norvegicus
# protocol.description: Open TG-GATES - Regimen: Daily Repeat
# Assay type: toxicity, organism-based, Sprague-Dawley
# Set-up: regimen Daily Repeat, gender Male, age 6 weeks
# assay.setup: in vivo, po, 1000 mg/kg, 72 h, tissue Blood, route gavage, dose level High, time 3 day
observed.property: MCHC

Reference set, count: 3
compound	MCHC
CCCCNC(=O)NS(=O)(=O)c1ccc(C)cc1 [TOLBUTAMIDE]	33%
O=C(O)c1ccccc1Nc1ccccc1	33.8%
CC(S)C(=O)NCC(=O)O (centres undefined)	33.2%

Note down MCHC recorded for `CC(=O)[C@@]1(O)CC[C@H]2[C@@H]3C=C(Cl)C4=CC(=O)CC[C@]4(C)[C@H]3CC[C@@]21C` 33.1%

---

Assign Lym to each entry below.
# Species: Rattus norvegicus
# protocol.description: Open TG-GATES - Regimen: Single
# Assay type: toxicity, organism-based, Sprague-Dawley
# Parameters: regimen Single, gender Male, age 6 weeks
# assay.setup: in vivo, po, 0 mg/kg, 24 h, tissue Blood, route gavage, dose level Control
Numbers only, in %.

compound	unit.text	Lym
CN(C)CCCN1c2ccccc2Sc2ccc(Cl)cc21 [CHLORPROMAZINE]	%	79
O=c1ccc2ccccc2o1 [COUMARIN]	%	77.2
CCCCNC(=O)NS(=O)(=O)c1ccc(C)cc1 [TOLBUTAMIDE]	%	74.2

Shift focus to the following entry.
Write down Lym measured for item COc1ccc([C@@H]2Sc3ccccc3N(CCN(C)C)C(=O)[C@@H]2OC(C)=O)cc1 [DILTIAZEM] 74.6

---

Give measured MCV for each item. Keep answers brief.
# Organism: Rattus norvegicus
# protocol.description: Open TG-GATES - Regimen: Daily Repeat
# Type: toxicity, organism-based, Sprague-Dawley
# Set-up: regimen Daily Repeat, gender Male, age 6 weeks
# assay.setup: in vivo, po, 300 mg/kg, […], tissue Blood, route gavage, dose level Middle, time 14 day
Give bare numbers, in fL.

Here are 3 compounds together with their reported answers.
compound	MCV / fL
CC(S)C(=O)NCC(=O)O (centres undefined)	59.7
CCCCNC(=O)NS(=O)(=O)c1ccc(C)cc1 [TOLBUTAMIDE]	59.8
CC(=O)[C@@]1(O)CC[C@H]2[C@@H]3C=C(Cl)C4=CC(=O)CC[C@]4(C)[C@H]3CC[C@@]21C	56.8

For the next question, use this compound.
Supply measured MCV of `O=C(O)c1ccccc1Nc1ccccc1` in your reply. 58.6

---

# Organism: Rattus norvegicus
# protocol.description: Open TG-GATES - Regimen: Daily Repeat
# Format: toxicity, organism-based, Sprague-Dawley
# Parameters: regimen Daily Repeat, gender Male, age 6 weeks
# assay.setup: in vivo, po, 300 mg/kg, […], tissue Kidney, route gavage, dose level Middle, time 14 day
observed.property: KIDNEY_L (g)
Give bare numbers, in g.

Worked set:
compound	KIDNEY_L, g
CC(S)C(=O)NCC(=O)O (centres undefined) [TIOPRONIN]	1.2
CCCCNC(=O)NS(=O)(=O)c1ccc(C)cc1 [TOLBUTAMIDE]	1.3

Batch request: KIDNEY_L per item, same order as input.
1. O=C(O)c1ccccc1Nc1ccccc1 [FENAMIC ACID]
2. CC(=O)[C@@]1(O)CC[C@H]2[C@@H]3C=C(Cl)C4=CC(=O)CC[C@]4(C)[C@H]3CC[C@@]21C [CHLORMADINONE]

1: 1.4; 2: 1.1
